Target: Tyrosyl-DNA phosphodiesterase 1 (Homo sapiens)
Sequence (Q9NUW8 whole entry): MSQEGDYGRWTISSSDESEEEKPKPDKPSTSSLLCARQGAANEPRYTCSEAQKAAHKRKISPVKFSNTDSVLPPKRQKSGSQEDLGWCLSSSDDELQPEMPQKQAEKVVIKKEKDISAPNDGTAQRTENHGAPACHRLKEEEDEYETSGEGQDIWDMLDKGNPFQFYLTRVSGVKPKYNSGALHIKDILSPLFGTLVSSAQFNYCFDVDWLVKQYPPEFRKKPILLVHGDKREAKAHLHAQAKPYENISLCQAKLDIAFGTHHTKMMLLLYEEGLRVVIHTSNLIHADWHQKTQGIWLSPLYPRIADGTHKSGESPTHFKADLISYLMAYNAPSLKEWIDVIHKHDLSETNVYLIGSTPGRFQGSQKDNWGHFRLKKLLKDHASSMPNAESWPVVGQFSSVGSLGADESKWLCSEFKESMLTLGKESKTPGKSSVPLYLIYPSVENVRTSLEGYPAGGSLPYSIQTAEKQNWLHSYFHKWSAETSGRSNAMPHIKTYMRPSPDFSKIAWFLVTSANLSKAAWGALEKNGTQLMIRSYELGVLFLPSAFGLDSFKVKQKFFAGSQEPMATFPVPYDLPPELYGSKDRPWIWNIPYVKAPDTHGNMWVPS
Test: Inhibition of recombinant TDP1 (unknown origin) using 5'-32P-labeled N14Y DNA substrate incubated for 15 mins by PAGE analysis
pIC50: −log10 of the molar value.
Examples of compounds with documented pIC50 follow.
RESULT_TYPE: pIC50

{"columns": ["COMPOUND", "RESULT_TYPE", "RECORDED_RESULT"],
 "data": [
  ["O=C(O)c1ccc(-c2ccc(/C=C3/NC(=O)N(Cc4ccccc4F)C3=O)o2)cc1", "pIC50", 5.11],
  ["COc1c(N2CCN(CNc3ccc(S(=O)(=O)Nc4nc(C)cc(C)n4)cc3)C(C)C2)c(F)cc2c(=O)c(C(=O)O)cn(C3CC3)c12 (centres undefined)", "pIC50", 7.66],
  ["COc1ccc2c(c1)Oc1nc(-c3ccc(C)cc3)nc(SCC(=O)Nc3ccc(C(=O)O)cc3)c1C2", "pIC50", 4.92],
  ["CCn1cc(C(=O)O)c(=O)c2cc(F)c(N3CCN(CNc4ccc(S(=O)(=O)Nc5nc(C)cc(C)n5)cc4)CC3)cc21", "pIC50", 8.30]
]}
